Tested on: HCC 2998
ASSAY_NOTES: NCI tumour cell line growth inhibition, 48 h
The source made the active and inactive calls. Rule as the data show it: active = GI50 up to about 1.1 µM and inactive = higher.
This listing pairs molecules with measured GI50.

Worked examples follow.
# MOLECULE, GI50
records = [
    ("C=CCc1cccc(/C=N\\N/C(N)=N/O)c1O", "3.21 µM (inactive)"),
    ("OCc1ccc2c(c1)CC1(C2)Cc2cc3c(cc2C1)CCC3", "6.12 µM (inactive)"),
    ("O=C(NCCCN(CCCCN(CCCNC(=O)C(F)(F)F)Cc1ccccc1)Cc1ccccc1)C(F)(F)F", "4.24 µM (inactive)"),
    ("COC(=O)/C=C/c1cc(O)c2c(c1)[C@H](C(=O)OC)[C@@H](c1ccc(O)c(O)c1)O2", "19.2 µM (inactive)"),
    ("N#Cc1c(N)c2c(c(-c3ccccc3)c1-c1ccccc1)C(=O)N(Nc1ccccc1)C2=O", "35.8 µM (inactive)"),
    ("CN(C)c1nc(N(C)C)nc(N(C)C)n1", "> 123 µM (inactive)"),
    ("CC(=O)c1c2c(c3ccccc3c1O)O[C@@H]1OCC[C@H]21", "> 100 µM (inactive)"),
    ("COc1cc(Nc2cnc3cc(N)ccc3n2)cc(OC)c1OC", "50.1 µM (inactive)"),
    ("O=c1[nH]c2ccccc2c2nc3ccccc3n12", "27.9 µM (inactive)"),
    ("C1CC2=C(C1)[Se]C(=C1Sc3nsnc3S1)[Se]2", "> 100 µM (inactive)"),
]

Summary for this molecule, NC(CC1=CCC=CC1)C(=O)O (stereo not drawn) : GI50 is > 100 µM (inactive)

Summary for this molecule, Nc1nc(O)c2nc3c(nc2n1)C(=O)N(c1ccc(C(=O)O)cc1)C3 : GI50 is > 100 µM (inactive)

Summary for this molecule, O=NN(CCCl)C(=O)NC1CCCCC1 : GI50 is 56 µM (inactive)

----------
Tested on: HT-29
ASSAY_NOTES: NCI tumour cell line growth inhibition, 48 h
The source made the active and inactive calls. Cut-off read from the data, not from the text of the source: active = GI50 up to about 1.1 µM and inactive = higher.
QUANTITY: GI50

Worked examples follow.
# MOLECULE, GI50
records = [
    ("C[N+](C)=C/C=C(\\Cl)c1ccc2ccccc2c1", "7.64 µM (inactive)"),
    ("COc1cc(C2SCC(=O)N2c2ccc(-c3ccc(-n4c(-c5ccccc5)nc5ccccc5c4=O)cc3)cc2)cc(OC)c1OC (stereo not given)", "33.3 µM (inactive)"),
]

Summary for this molecule, O=c1[nH]nc(-c2ccccc2)n1-n1cnnc1 : GI50 is > 100 µM (inactive)

Summary for this molecule, CCN1CCC(O)(c2ccc(C)cc2)C(C(=O)c2ccc(C)cc2)C1 (stereo not given) : GI50 is 19.8 µM (inactive)

Summary for this molecule, CCN(CC)CCn1c2ccccc2c(=O)c2c(O)ccc(O)c21 : GI50 is 35.9 µM (inactive)

----------
Test system: NCI-H522
ASSAY_NOTES: NCI tumour cell line growth inhibition, 48 h
The source made the active and inactive calls. Rule as the data show it: active = GI50 up to about 1.1 µM and inactive = higher.
This listing pairs compounds with measured GI50.

# COMPOUND, GI50
data = [
    ("OCCN(CCO)c1nc(N2CCCCC2)c2nc(N(CCO)CCO)nc(N3CCCCC3)c2n1 [DIPYRIDAMOLE]", "17.9 µM (inactive)"),
    ("COc1ccc(NCc2cc(OC)c(OC)c(OC)c2)cc1", "0.372 µM (active)"),
    ("CCN(CC)CCN(/C(=N/c1ccccc1)N1CCOCC1)c1ccccc1", "> 100 µM (inactive)"),
    ("COC(=O)c1cc(NC2OCC(OC(C)=O)C(OC(C)=O)C2OC(C)=O)nc(SC)c1C(=O)OC (stereo not given)", "> 100 µM (inactive)"),
    ("OCCN(C1=NCCN1)/[N+](=C/c1ccccc1O)[CH-]c1ccccc1O", "> 100 µM (inactive)"),
    ("O=c1c2sc3nc(NCCN4CCCCC4)ncc3c2ncn1-c1ccccc1", "41 µM (inactive)"),
    ("O=C(c1ccccc1)C(C(=O)c1ccccc1)C1(O)C(=O)c2ccccc2C1=O", "14.1 µM (inactive)"),
    ("Cc1ccc(/N=C2N=C(Cl)/C(=C\\c3ccccc3)N\\2)cc1", "> 100 µM (inactive)"),
]

Summary for this compound, CC1CC(C)C(=O)C(C(=O)CC2CC(=O)NC2=O)C1 (stereo not given) : GI50 is > 100 µM (inactive)

Summary for this compound, COc1ccc(OC)c(NC(=O)CCC/C(CC(=O)c2ccc(O)c(OC)c2)=N\NC(=O)C[N+](C)(C)C)c1 : GI50 is > 100 µM (inactive)

Summary for this compound, C=CC[C@]1(/C=N/O)CN(S(=O)(=O)CC[Si](C)(C)C)C[C@H]2CC=CC[C@H]21 : GI50 is 15.8 µM (inactive)

Summary for this compound, C=C1C(O)C23CCC4C(C(=O)O)(C(=O)O)CC(OC5OC(CO)C(O)C(OC(=O)CCc6ccccc6)C5NC(=O)CC(C)C)CC4(C)C2CCC1(O)C3 (stereo not given) : GI50 is > 100 µM (inactive)

Summary for this compound, O=[N+]([O-])c1ccc(C2=NN(c3ccccc3)C[N+](c3ccc(Br)cc3)=N2)cc1 : GI50 is 38.1 µM (inactive)

Summary for this compound, O=[N+]([O-])c1cccc(-c2csc(N/N=C3\NC/C(=C/c4ccc5c(c4)OCO5)S3)n2)c1 : GI50 is 18.2 µM (inactive)

Summary for this compound, CC1CCC2N(C1)CC1C3(O)CC45OC6(O)C(O)CCC4(C)C6CCC5C3(O)CC(O)C1(O)C2(C)O (stereo not given) : GI50 is > 100 µM (inactive)

Summary for this compound, OC(c1ccccc1)(c1cccnc1)C(O)(c1ccccc1)c1cccnc1 (stereo not given) : GI50 is 6.97 µM (inactive)

From: ChEMBL document CHEMBL1201862
